- Run description: MRT (0 to t) in Sprague-Dawley rat at 3 mg/kg, iv by LC-MS/MS analysis
- Format: ADME, organism-based
- Setup conditions: in vivo

{"columns": ["Mol smiles", "MRT last"],
 "data": [
  ["COCCN[C@H]1CC[C@H](Nc2cc(-c3csc(NCC4(C#N)CCOCC4)n3)c(Cl)cn2)CC1", "4.69 h"]
]}

###

- Target or system: Cyclin-dependent kinase 9 (Homo sapiens, UniProt P50750)
- Sequence (P50750 whole entry, the tested form may be a part): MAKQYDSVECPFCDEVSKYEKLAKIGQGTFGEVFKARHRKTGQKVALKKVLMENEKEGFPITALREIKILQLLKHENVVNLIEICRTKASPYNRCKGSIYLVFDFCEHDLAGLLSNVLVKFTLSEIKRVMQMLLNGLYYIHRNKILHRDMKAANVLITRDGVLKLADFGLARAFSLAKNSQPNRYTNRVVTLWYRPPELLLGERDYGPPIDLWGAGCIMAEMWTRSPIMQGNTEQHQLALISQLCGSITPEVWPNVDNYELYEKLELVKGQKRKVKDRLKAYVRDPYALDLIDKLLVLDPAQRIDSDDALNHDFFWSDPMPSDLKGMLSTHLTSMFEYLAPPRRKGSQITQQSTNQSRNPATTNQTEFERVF
- Run description: Inhibition of CDK9 in human MV4-11 cells assessed as decrease in RNA polymerase 2 phosphorylation at Ser 2 residues in CTD domain after 2 hrs by immunoblotting analysis
- Type: cell-based

{"columns": ["Mol smiles", "Target or system", "EC50"],
 "data": [
  ["COCCN[C@H]1CC[C@H](Nc2cc(-c3csc(NCC4(C#N)CCOCC4)n3)c(Cl)cn2)CC1", "Cyclin-dependent kinase 9 (Homo sapiens, UniProt P50750)", "< 100 nM"]
]}

###

This section presents compounds with their documented GI50 values.
- Run description: Antiproliferative activity against human MEC1 cells after 72 hrs by Celltiter-Glo assay
- Assay type: functional
- Setup conditions: MEC1, 72 h

{"columns": ["Compound", "Comparison operator", "GI50 / µM"],
 "data": [
  ["COCCN[C@H]1CC[C@H](Nc2cc(-c3csc(NCC(F)(F)F)n3)c(Cl)cn2)CC1", "=", 1.1],
  ["COCCN[C@H]1CC[C@H](Nc2cc(-c3csc(NCC4CCOCC4)n3)c(C)cn2)CC1", "=", 3.56],
  ["COC[C@H](C)N[C@H]1CC[C@H](Nc2cc(-c3csc(NCC4(C#N)CCOCC4)n3)c(Cl)cn2)CC1", "=", 0.537],
  ["COCCN[C@H]1CC[C@H](Nc2cc(-c3csc(NCC4CCCCC4)n3)c(Cl)cn2)CC1", "=", 0.85],
  ["COCCNc1cc(-c2csc(NCC3CCOCC3)n2)c(Cl)cn1", ">", 10],
  ["COCCN[C@H]1CC[C@H](Nc2cc(-c3csc(OCC4CCOCC4)n3)c(Cl)cn2)CC1", "=", 1.4],
  ["N[C@H]1CC[C@H](Nc2cc(-c3csc(NCC4CCOCC4)n3)c(Cl)cn2)CC1", "=", 0.27],
  ["CCc1cnn2c(NCc3ccc[n+]([O-])c3)cc(N3CCCC[C@H]3CCO)nc12 [DINACICLIB]", "=", 0.0036],
  ["N[C@H]1CC[C@H](CNc2cc(-c3csc(NCC4CCOCC4)n3)c(Cl)cn2)CC1", ">", 10],
  ["COCCN[C@H]1CC[C@H](Nc2cc(-c3csc(NCC4CC4)n3)c(Cl)cn2)CC1", "=", 0.89],
  ["COCCCN[C@H]1CC[C@H](Nc2cc(-c3csc(NCC4CCOCC4)n3)c(Cl)cn2)CC1", "=", 2.61],
  ["COCC(=O)N[C@H]1CC[C@H](Nc2cc(-c3csc(NCC4CCOCC4)n3)c(Cl)cn2)CC1", ">", 10],
  ["COCCN[C@H]1CC[C@H](Nc2cc(-c3csc(SCC4CCOCC4)n3)c(Cl)cn2)CC1", "=", 0.8],
  ["Fc1cc(-c2csc(NCC3CCOCC3)n2)c(Cl)cn1", ">", 10]
]}

Value source: ChEMBL document CHEMBL4261600
